Please go through the items and note down their logP.
assay: Partition coefficient (logP); type: physicochemical; details: octanol/water
Reply with just the number.

Look up and state reported logP for CCCn1c(=O)c2[nH]c(-c3ccc(Cl)cc3N)nc2n(CCC)c1=O
4.02

Look up and state reported logP for CCn1c(=O)c2[nH]c(-c3ccc(S(=O)(=O)O)cc3)nc2n(CC)c1=O
-0.97

Look up and state reported logP for CCCn1c(=O)c2nc(-c3ccc(S(=O)(=O)NCCN(C)C)cc3)[nH]c2n(CCC)c1=O
3.32

Look up and state reported logP for CCn1c(=O)c2[nH]c(-c3ccccc3)nc2n(CC)c1=O
2.93

Look up and state reported logP for CCCn1c(=O)c2nc(-c3ccccc3N)[nH]c2n(CCC)c1=O
3.54

Look up and state reported logP for CCn1c(=O)c2nc(-c3ccc(S(=O)(=O)NCCN(C)C)cc3)[nH]c2n(CC)c1=O
2.57

Look up and state reported logP for CCCn1c(=O)c2[nH]c(-c3ccc(S(=O)(=O)O)cc3)nc2n(CCC)c1=O
-0.03

Source: ChEMBL document CHEMBL1122916
